test: soluble fraction after stress (log2 fold change); higher = more stays soluble; pooled small domains, quantitative proteomics; details: stress: 50 degC
attribute-measured: soluble fraction (log2)

{"columns": ["ordered-residues", "value-measured"],
 "data": [
  ["HMNPKTELMVYLKKRDEWVASQILSDVLQVSTRTIRKFVKEINMDYQTENVILSSSKGYKLNQNLLSSL", -1.2],
  ["HMLGKSNAERQLDLILGAIERSITGVSRSKLMQAYHLDSRGATAAFETLEQRGLITRSKSGRTELLIPTRV", -1.29],
  ["HMAHYYVRNGYYYYQRRIPLDLRKFYSGANIKASLKTKDPAIAALFVAKFDRQYDAEFAQRRLNPD", -0.482],
  ["HMDRMINYSPIVAKVPQDDYTTKVYNIPIYSELTVVDKISEPEPLIAPIYRFKYITPEDEEIEFDIPV", 0.0278]
]}
